Measured pEC50 by item
Biological target: GLP-1R (Homo sapiens (Human))
Sequence (P43220 24-463): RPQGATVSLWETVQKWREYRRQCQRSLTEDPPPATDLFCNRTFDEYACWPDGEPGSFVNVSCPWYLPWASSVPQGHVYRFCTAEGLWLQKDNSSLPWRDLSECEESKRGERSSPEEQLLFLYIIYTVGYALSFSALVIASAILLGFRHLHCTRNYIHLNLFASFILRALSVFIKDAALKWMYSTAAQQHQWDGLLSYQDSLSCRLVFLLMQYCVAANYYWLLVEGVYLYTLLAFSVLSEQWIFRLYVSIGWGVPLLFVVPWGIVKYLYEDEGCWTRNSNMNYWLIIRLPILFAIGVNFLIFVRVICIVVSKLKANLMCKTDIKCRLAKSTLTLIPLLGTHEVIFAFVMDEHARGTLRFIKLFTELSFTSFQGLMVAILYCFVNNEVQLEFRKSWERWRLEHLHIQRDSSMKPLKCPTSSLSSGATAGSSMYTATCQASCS
Assay: GLP-1R activation: cAMP increase in CHO cells stably expressing GLP-1R
Type: cell-based
Conditions: cAMP increase, 10 point dose response, 30 minutes incubation at 37° C., read-out: EC50
pEC50: −log10 of the molar value.

{"MOLECULE": "COCCn1c(Cc2c(F)cc(-c3cccc4c3OC(C)(c3ccc(C#N)cc3F)O4)c(F)c2F)nc2ccc(C(=O)O)cc21 (stereo not shown) [Example 88]", "pEC50": 7.92}
{"MOLECULE": "COCCn1c(Cc2c(F)cc(-c3cccc4c3OC3c5ccc(Cl)cc5OC43)cc2F)nc2ccc(C(=O)O)cc21 (stereo not shown)", "pEC50": 6.20}
{"MOLECULE": "CCn1cnnc1Cn1c(Cc2c(F)cc(-c3cccc4c3OC(C)(c3ccc(Cl)cc3F)O4)cc2F)nc2ccc(C(=O)O)cc21 (stereo not shown)", "pEC50": 7.92}
{"MOLECULE": "COCCn1c(Cc2c(F)cc(-c3cccc4c3OC3(c5ccc(Cl)cc5)CCCN43)cc2F)nc2ccc(C(=O)O)cc21 (stereo not shown)", "pEC50": 5.16}
{"MOLECULE": "CC1(c2ccc(Cl)cc2F)Oc2cccc(-c3cc(F)c(Cc4nc5ccc(C(=O)O)cc5n4CCOC(F)F)c(F)c3)c2O1 (stereo not shown)", "pEC50": 7.89}
{"MOLECULE": "CC1(c2ccc(Cl)cc2F)Oc2cccc(-c3cc(F)c(Cc4nc5c(F)cc(C(=O)O)cc5n4CC4(CC(N)=O)CC4)c(F)c3)c2O1 (stereo not shown)", "pEC50": 8.07}
{"MOLECULE": "COCCn1c(Cc2ccc(-c3cccc4c3OC(c3ccccc3)C4)cc2F)nc2ccc(C(=O)O)cc21 (stereo not shown)", "pEC50": 6.28}

###

Test: Microsomal stability (liver microsomal assay, mixed cofactors); predicted hepatic clearance
Assay type: in vitro ADME
Settings: liver microsomes 1.0 mg protein/mL (+UDPGA +NADPH), 1 μM analyte, 37° C.; scaled with human liver weight and hepatic blood flow 1.3 L/hr/kg
Tag: met if measured Predicted Hepatic Clearance (Pred. Cl.) is not below 4 mL/min/kg, not met if it is.

{"MOLECULE": "CC1(c2ccc(Cl)cc2F)Oc2cccc(-c3cc(F)c(Cc4nc5c(F)cc(C(=O)O)cc5n4CC4(CC#N)CC4)c(F)c3)c2O1 (single isomer, unassigned) [Example 105]", "LABEL": "not met"}
{"MOLECULE": "CC1(c2ccc(Cl)cc2F)Oc2cccc(-c3cc(F)c(Cc4nc5c(F)cc(C(=O)O)cc5n4CC4(CC#N)CC4)c(F)c3)c2O1 (single isomer, unassigned) [Example 106]", "LABEL": "met"}
{"MOLECULE": "CC1(c2ccc(C#N)cc2F)Oc2cccc(-c3cc(F)c(Cc4nc5ccc(C(=O)O)cc5n4C[C@@H]4CCO4)c(F)c3)c2O1 (single isomer, unassigned) [Example 93]", "LABEL": "met"}
{"MOLECULE": "COCCn1c(Cc2cc(F)c(-c3cccc4c3OC(c3ccc(C#N)cc3F)O4)cc2F)nc2ccc(C(=O)O)cc21 (single isomer, unassigned) [Example 39]", "LABEL": "not met"}
{"MOLECULE": "COCCn1c(Cc2c(F)cc(-c3cccc4c3OC3(CCCCc5cc(Cl)ccc53)O4)cc2F)nc2ccc(C(=O)O)cc21 (stereo not drawn)", "LABEL": "met"}
{"MOLECULE": "CC1(c2ccc(Cl)cn2)Oc2cccc(-c3cc(F)c(Cc4nc5ccc(C(=O)O)cc5n4C[C@@H]4CCO4)cc3F)c2O1 (stereo partly drawn) [Example 29]", "LABEL": "met"}
{"MOLECULE": "CC1(c2ccc(Cl)cc2F)Oc2cccc(-c3cc(F)c(Cc4nc5ccc(C(=O)O)nc5n4CC4(CC#N)CC4)cc3F)c2O1 (stereo not drawn)", "LABEL": "met"}
{"MOLECULE": "COCCn1c(Cc2c(F)cc(-c3cccc4c3OC(c3ccc(C#N)cc3F)O4)cc2F)nc2ccc(C(=O)O)cc21 (stereo not drawn) [Example 5]", "LABEL": "not met"}
{"MOLECULE": "CC1(c2ccc(Cl)cc2F)Oc2cccc(-c3cc(F)c(Cc4nc5ccc(C(=O)O)cc5n4Cc4ncco4)c(F)c3)c2O1 (stereo not drawn)", "LABEL": "not met"}
{"MOLECULE": "N#Cc1ccc(C2Oc3cccc(-c4cc(F)c(Cc5nc6ccc(C(=O)O)cc6n5C[C@@H]5CCO5)c(F)c4)c3O2)c(F)c1 (single isomer, unassigned) [Example 42]", "LABEL": "not met"}
{"MOLECULE": "COCCn1c(Cc2ccc(-c3cccc4c3OC(c3ccc(C#N)cc3F)O4)cc2F)nc2ccc(C(=O)O)cc21 (single isomer, unassigned) [Example 34]", "LABEL": "met"}
{"MOLECULE": "COCCn1c(Cc2c(F)cc(-c3cccc4c3OC(C)(c3ccc(C#N)cc3F)O4)cc2F)nc2ccc(C(=O)O)cc21 (single isomer, unassigned) [Example 99]", "LABEL": "met"}

###

A collection of compounds and their measured EC50
Biological target: GLP-1R (Homo sapiens (Human))
Test: GLP-1R activation: cAMP increase in CHO cells stably expressing GLP-1R
Assay type: cell-based
Conditions: cAMP increase, 10 point dose response, 30 minutes incubation at 37° C., read-out: EC50
VALUE_KIND: EC50 (nM)

{"COMPOUND": "CC1(c2ccc(Cl)cc2F)Oc2cccc(-c3cc(F)c(Cc4nc5ccc(C(=O)O)cc5n4CCS(C)(=O)=O)c(F)c3)c2O1 (centres unmarked) [Example 82]", "MEASUREMENT_UNIT": "nM", "VALUE_MEASURED": 20}
{"COMPOUND": "COCCn1c(Cc2c(F)cc(-c3cccc4c3OC(C)(c3ccc(C(N)=O)cn3)O4)cc2F)nc2ccc(C(=O)O)cc21 (centres unmarked) [Example 67]", "MEASUREMENT_UNIT": "nM", "VALUE_MEASURED": 20}
{"COMPOUND": "COCCn1c(Cc2c(F)cc(-c3cccc4c3OC(C)(c3ccc(Cl)cn3)O4)cc2F)nc2ccc(C(=O)O)cc21 (centres unmarked) [Example 65]", "MEASUREMENT_UNIT": "nM", "VALUE_MEASURED": 10}
{"COMPOUND": "COCCn1c(Cc2c(F)cc(-c3cccc4c3OC(CCC(=O)O)(c3ccc(Cl)cc3)N4)cc2F)nc2ccc(C(=O)O)cc21 (centres unmarked) [Example 10]", "MEASUREMENT_UNIT": "nM", "VALUE_MEASURED": 130}
{"COMPOUND": "CC1(c2ccc(Cl)cn2)Oc2cccc(-c3cc(F)c(Cc4nc5ccc(C(=O)O)cc5n4C[C@@H]4CCO4)c(C#N)c3)c2O1 (some centres unmarked) [Example 74]", "MEASUREMENT_UNIT": "nM", "VALUE_MEASURED": 1.7}

Entry source: patent US20250099431A1
